Tested on: CAKI-1 renal
Assay: NCI tumour cell line growth inhibition, 48 h
Reported values of TGI for individual entries

molecule: S=C1SCN(C2CCCCCCCCCCC2)CN1C1CCCCCCCCCCC1
comparison-sign: >
TGI / µM: 100
//
molecule: COc1ccc(C[C@H]2NC[C@H](O)[C@H]2OC(C)=O)cc1
comparison-sign: =
TGI / µM: 0.06
//
molecule: COC1C(O)CC(OC2CC(OC3CC(O[C@@H]4C(=O)c5c(cc6cc(OC7CC(OC8CC(O)C(O)C(C)O8)C(O)C(C)O7)c(C)c(O)c6c5O)CC4[C@H](OC)[C@@H](O)C(C)=O)OC(C)C3O)OC(C)C2O)OC1C (some centres undefined)
comparison-sign: >
TGI / µM: 33.3
//
molecule: COc1ncc(C#CC(=O)c2ccccc2)c(OC)n1
comparison-sign: =
TGI / µM: 7.3

----------
Tested on: SF-539 CNS
Test: NCI tumour cell line growth inhibition, 48 h
endpoint: TGI

compound: COC1C(O)CC(OC2CC(OC3CC(O[C@@H]4C(=O)c5c(cc6cc(OC7CC(OC8CC(O)C(O)C(C)O8)C(O)C(C)O7)c(C)c(O)c6c5O)CC4[C@H](OC)[C@@H](O)C(C)=O)OC(C)C3O)OC(C)C2O)OC1C (some centres undefined)
meas-value: 0.463 µM
--
compound: N/C(=N\N=C\c1ccc(O)c(O)c1)NO
meas-value: > 100 µM
--
compound: C=CCN(c1cc(OC)c2c(c1[N+](=O)[O-])C(C)(SC)C(=O)N2)S(C)(=O)=O (centres undefined)
meas-value: > 100 µM
--
compound: COC(=O)/C=C/c1cnc2c(c1)oc(=O)n2C
meas-value: > 100 µM

----------
Reported values of TGI for individual entries
System: SNB-75 CNS
Experiment: NCI tumour cell line growth inhibition, 48 h

molecule: Cc1ccc(NC(=S)N=Nc2c(O)[nH]c3ccccc23)cc1
unit: µM
comparison-sign: >
TGI: 100
--
molecule: Clc1nc(-c2ccccc2)nc(Cl)c1Cl
unit: µM
comparison-sign: =
TGI: 29.1
--
molecule: NS(=O)(=O)c1ccc(N2C(=O)C(=O)N(c3ccccc3)C2=S)cc1
unit: µM
comparison-sign: >
TGI: 100
--
molecule: CC(c1ccccc1)C(O)S(=O)(=O)O (stereo not given)
unit: µM
comparison-sign: >
TGI: 100
--
molecule: COc1ccc(S(=O)(=O)Nc2ccc(-c3csc(N4C(=O)/C(=C/c5cccs5)N=C4c4ccccc4)n3)cc2)cc1Cl
unit: µM
comparison-sign: >
TGI: 100
--
molecule: CC1(C)CC[C@]2(C(=O)O)CC[C@]3(C)C(=CC[C@@H]4[C@@]5(C)CC[C@H](OC6OC(CO)C(O)C(O)C6O)C(C)(C)[C@@H]5CC[C@]43C)[C@@H]2C1 (stereo not given in full)
unit: µM
comparison-sign: =
TGI: 5.33
--
molecule: OC1(C2(c3ccc(Cl)cc3)CCCC2)c2ccccc2C2=NCCN21 (stereo not given)
unit: µM
comparison-sign: =
TGI: 12.7
--
molecule: Cc1ccc(N2C3=C(CC4=C2CC(C)(C)CC4=O)C(=O)CC(C)(C)C3)cc1
unit: µM
comparison-sign: =
TGI: 82.6
--
molecule: C(/C=C/Nc1ccc(-c2ccccc2)cc1)=Nc1ccc(-c2ccccc2)cc1
unit: µM
comparison-sign: >
TGI: 100
--
molecule: CNC(=S)N(C1CCCCC1)C1CCCCC1
unit: µM
comparison-sign: >
TGI: 100

----------
System: KM12 colon
Assay: NCI tumour cell line growth inhibition, 48 h
Classification field: t = TGI at or over 30 µM; f = TGI under 30 µM.

compound: CC(=Nc1ccccc1)C1=C(O)C(Cc2ccc(F)cc2)NC1=O (stereo not given)
class: t
//
compound: CN1CCN(c2ccc(-c3cccc(CN4CCOCC4)c3)cc2NC(=O)c2c[nH]c(=O)cc2C(F)(F)F)CC1
class: t
//
compound: Fc1cc2nc3n(c2cc1F)C(c1c(Cl)cccc1Cl)SC3 (stereo not given)
class: f
//
compound: COc1cccc(NC(=O)c2ccc(NC3=C(Cl)C(=O)N(Cc4ccccc4)C3=O)cc2)c1
class: t
//
compound: CN(/N=C/c1ccccc1C(=O)O)C1=NCCCCN1
class: t
//
compound: CC1(C)CN=C(Nc2ccc(F)c(Cl)c2)S1
class: t
//
compound: COc1c(N2CCN(CN3C(=O)C(=O)c4ccccc43)C(C)C2)c(F)cc2c(=O)c(C(=O)O)cn(C3CC3)c12 (stereo not given)
class: t
//
compound: C=C(C)[C@@H]1CC[C@]2(CN)CC[C@]3(C)[C@H](CC[C@@H]4[C@@]5(C)CCC(N)[C@@](C)(CO)[C@@H]5CC[C@]43C)[C@@H]12 (stereo not given in full)
class: f
//
compound: CC(=O)OCc1nnn2c1CCC2
class: t
//
compound: CC(c1ccccc1)C(O)S(=O)(=O)O (stereo not given)
class: t
//
compound: C=CCN(c1cc(OC)c2c(c1[N+](=O)[O-])C(C)(SC)C(=O)N2)S(C)(=O)=O (stereo not given)
class: t
//
compound: CC(C)C1NC(=O)[C@H](C)OC(=O)[C@@H](C(C)C)NC(=O)[C@@H](C)OC(=O)C(C(C)C)NC(=O)[C@H](C)OC1=O (stereo not given in full)
class: t
//
compound: CN(C)C1C(=O)C(C(N)=O)=C(O)C2(O)C(=O)C3=C(O)c4c(O)cccc4C(C)(O)C3CC12 (stereo not given)
class: t
//
compound: COc1cc2ccc3c4cc(OC)c(OC(C)C)cc4c[n+](C)c3c2cc1OC
class: t
//
compound: COc1ccc(OCC(C)(C)O)cc1
class: t
//
compound: CN(C(=O)c1ccc(Cl)cc1)C(=S)N1CCN(c2ccccc2)CC1
class: t
//
compound: COC(=O)/C=C/c1cnc2c(c1)oc(=O)n2C
class: t
//
compound: C[C@H](C(O)CC(=O)C(C)(C)O)[C@H]1CC[C@@]2(C)[C@@H]3CC[C@H]4C(C)(C)[C@@H](OC5OC(COC6OC(CO)C(O)C(O)C6O)C(O)C(O)C5O)CC[C@]4(C)C3=CC[C@]12C (stereo not given in full)
class: t
//
compound: O=C1/C(=C\c2cccc(Oc3ccccc3)c2)SC(c2ccccc2)N1c1cccc(Cl)c1 (stereo not given)
class: t
//
compound: C=CC(C)(C)n1cc(C2=C(O)C(=O)C(c3c(CC=C(C)C)[nH]c4ccccc34)=C(O)C2=O)c2ccccc21
class: f
//
compound: COc1ccc(-c2nc(SC)n(C3OC(COC(C)=O)C(OC(C)=O)C(OC(C)=O)C3OC(C)=O)c(=O)c2C#N)cc1 (stereo not given)
class: t
//
compound: COc1ccc(C[C@H]2NC[C@H](O)[C@H]2OC(C)=O)cc1
class: f
//
compound: C/C(=N\Nc1nc2ccccc2o1)c1cc2ccccc2cn1
class: f
//
compound: N[C@@H](Cc1ccc2oc3cc(=O)c4ccccc4c-3nc2c1)C(=O)O
class: t
//
compound: [N-]=[N+]=NC1C2CC3CC(C2)CC1C3 (stereo not given)
class: t
//
compound: COC(=O)C1=C(O)c2cc3c(cc2[C@H](c2cc(OC)c(OC)c(OC)c2)C1)OCO3
class: t
//
compound: Cn1cc2ccccc2c1-c1nc(F)nc(Nc2ccc(N)cc2)n1
class: t
//
compound: C=COC(=O)N1C2CCCC(Cl)(C(C)=O)C1CC2 (stereo not given)
class: t
//
compound: Clc1nc(-c2ccccc2)nc(Cl)c1Cl
class: f
//
compound: COc1ccc2[nH]c3c(C)c4ncccc4c(C)c3c2c1
class: f
//
compound: COC(=O)C1(Cc2ccc(C)cc2)Cc2c(C)cccc2C1=O (stereo not given)
class: t
//
compound: CC(C)(C)C(=O)CC(=O)C(F)(F)C(F)(F)C(F)(F)F.[Ag]
class: t
//
compound: CCN(CC)c1ccc(/C=N/NC(=O)c2ccccc2Nc2ccnc(C(F)(F)F)c2)c(O)c1
class: t
//
compound: CC(C)=CCC/C(C)=C/CC/C(C)=C/C1CCC(=O)C1(C)C (stereo not given)
class: t
//
compound: CCOc1ncnc2ccc(Cl)c(I)c12
class: t
//
compound: S=C(S)N1CCN(c2ccccc2)CC1
class: t
//
compound: CC(C)Cc1ccc(C(C)/C=C2\CCC(CN3CCCCC3)C2=O)cc1 (stereo not given)
class: f
//
compound: CSS(C)(=O)=O
class: t

----------
System: SW-620 colon
Experiment: NCI tumour cell line growth inhibition, 48 h
Reported values of TGI for individual entries

compound: COc1ccc(C(=O)c2cc(C)c(OC)c(C)c2)c(OC)c1N(C(=O)CCl)C(=O)CCl
target-desc: SW-620 colon
comparison-sign: =
TGI, µM: 19.3

compound: Nc1nc(CC2(O)CCCCC2)cc(-c2ccccc2)n1
target-desc: SW-620 colon
comparison-sign: =
TGI, µM: 65

compound: COc1ccc2c(c1OC)C(C=C(c1ccccc1)c1ccccc1)CN(C)C2 (configuration not stated)
target-desc: SW-620 colon
comparison-sign: =
TGI, µM: 26.2

compound: COc1ccc2c(c1)c(=O)c1c(NCCCN(C)C)ccc3ncn2c31
target-desc: SW-620 colon
comparison-sign: =
TGI, µM: 15.3

compound: Clc1nc(-c2ccccc2)nc(Cl)c1Cl
target-desc: SW-620 colon
comparison-sign: =
TGI, µM: 15.1

compound: Nc1nc(Cl)c(C=O)c(NCC2(CO)CCC2)n1
target-desc: SW-620 colon
comparison-sign: >
TGI, µM: 100

compound: O=C(CC1SC(=Nc2ccccc2Cl)NC1=O)Nc1ccc(Cl)cc1 (configuration not stated)
target-desc: SW-620 colon
comparison-sign: =
TGI, µM: 28.4
